System: Glioblastoma cell line U87 cells
Experiment: MTT cell viability assay, glioblastoma cells
Format: cell-based
Details: Homo sapiens, U-87 MG, 72 h, U87 glioblastoma cells, MTT after three days
pIC50: −log10 of the molar value.
# if value of pIC50 reaches 5, tag rule met; if it stays below, tag rule not met

1) O=C(c1sc2cc(F)ccc2c1Cl)N1CCCC(CO)(CCCc2ccccc2)C1 (centres unmarked): rule not met
2) Clc1cc(N2CCc3ccccc3C2)ncn1: rule not met
3) CC1CCN(c2ccnc(N)n2)CC1: rule not met
4) Nc1nccc(N2CCC(c3ccccc3)CC2)n1: rule not met
5) Nc1nccc(N2CCC[C@H](COCc3ccccc3)C2)n1: rule met
6) Nc1nccc(N2CCC[C@@H](COCc3ccccc3)C2)n1: rule met

---

Test system: Immortalized human astrocytes
Assay: MTT cell viability assay, astrocytes (non-cancer control)
Type: cell-based
Settings: Homo sapiens, Astrocyte, 72 h, immortalized human astrocytes, MTT after three days
As shown below, each of these compounds has a reported IC50 value.
assayReadout: IC50

1. Cc1c(Cl)ncnc1N1CCC(CO)(CCCc2ccccc2)CC1: > 80 µM
2. Nc1nccc(N2CCc3ccccc3C2)n1: > 80 µM
3. COC(=O)C1CCCNC1 (stereo not shown): > 80 µM
4. Nc1nccc(N2CCCC(CO)(CCCc3ccccc3)C2)n1 (stereo not shown): > 80 µM
5. CCOC(=O)C1(CCCc2ccccc2)CCN(C(=O)OC(C)(C)C)CC1: ~60 µM
6. OCC1(CCCc2ccccc2)CCN(c2cc(C(F)(F)F)ncn2)CC1: > 80 µM
7. O=Cc1c(Cl)ncnc1N1CCCC(CO)(CCCc2ccccc2)C1 (stereo not shown): 18 µM
8. COc1nc(OC)nc(N2CCCC(CO)(CCCc3ccccc3)C2)n1 (stereo not shown): > 80 µM
9. Nc1nccc(N2CCCC(C(=O)NCc3ccccc3)C2)n1 (stereo not shown): > 80 µM
10. OCC1(CCCc2ccccc2)CCCN(c2ncnc3ccccc23)C1 (stereo not shown): 22 µM
11. Nc1nccc(N2CCC(c3ccccc3)CC2)n1: > 80 µM
12. Cc1c(O)ncnc1N1CCC(CO)(CCCc2ccccc2)CC1: 7.32 µM
13. Cc1nccnc1N1CCCC(CO)(CCCc2ccccc2)C1 (stereo not shown): 51.8 µM
14. OCC1(CCCc2ccccc2)CCCNC1 (stereo not shown): > 80 µM
15. Cc1nccnc1N1CCC(CO)(CCCc2ccccc2)CC1: > 80 µM
16. CCc1ncnc(N2CCC(CO)(CCCc3ccccc3)CC2)c1F: 12.5 µM
17. CC1CCN(c2ccnc(N)n2)CC1: > 80 µM
18. Nc1ccnc(N2CCCC(CO)(CCCc3ccccc3)C2)n1 (stereo not shown): > 80 µM
19. Nc1cncc(N2CCC(CO)(CCCc3ccccc3)CC2)n1: > 80 µM
20. Cc1c(-c2ccccc2)ncnc1N1CCCC(CO)(CCCc2ccccc2)C1 (stereo not shown): ~80 µM
21. OCC1(CCCc2ccccc2)CCCN(c2ncnc3cc(Cl)ccc23)C1 (stereo not shown): ~15 µM
22. CC(C)(C)OC(=O)N1CCCC(C(=O)NCc2ccccc2)C1 (stereo not shown): > 80 µM

---

As shown below, each of these compounds has a reported pIC50 value.
System: Immortalized human astrocytes
Assay: MTT cell viability assay, astrocytes (non-cancer control)
Type: cell-based
Settings: Homo sapiens, Astrocyte, 72 h, immortalized human astrocytes, MTT after three days
pIC50: −log10 of the molar value.
assayReadout: pIC50

1. Cc1nc(N)nc(N2CCCC(CO)(CCCc3ccccc3)C2)c1C (centres unmarked) [PLH1252]: 4.35
2. CCc1ncnc(N2CCCC(CO)(CCCc3ccccc3)C2)c1F (centres unmarked) [PLH2002]: 5.96
